Please go through the items and note down their MCC.
# Protocol text: Cytotoxicity to primary chicken kidney culture cells
# Format: cell-based
# Condition info: primary chicken kidney cells

Some compounds with known MCC results, for comparison:
* CCCCCc1cccc(O)c1C1=NC(C2SCC(C(O)C(C)(C)C3=NC(C)(C(=O)O)CS3)N2C)CS1 (stereo not drawn) | 10 µg/mL
* CCCCCc1cccc(O)c1C1=NC(C2SCC(C(O)C(C)(C)C3=NC(C)(C(N)=O)CS3)N2C)CS1 (stereo not drawn) | 10 µg/mL

Endpoint output: MCC of CCCCCc1cccc(O)c1C1=NC(C2SCC(C(O)C(C)(C)C3=NC(C)(CO)CS3)N2C)CS1 (stereo not drawn) . Value? > 10 µg/mL
